- targetEntity: Electrophorus electricus (Ee) AChE (Electrophorus electricus)
- Sequence (O42275 24-633): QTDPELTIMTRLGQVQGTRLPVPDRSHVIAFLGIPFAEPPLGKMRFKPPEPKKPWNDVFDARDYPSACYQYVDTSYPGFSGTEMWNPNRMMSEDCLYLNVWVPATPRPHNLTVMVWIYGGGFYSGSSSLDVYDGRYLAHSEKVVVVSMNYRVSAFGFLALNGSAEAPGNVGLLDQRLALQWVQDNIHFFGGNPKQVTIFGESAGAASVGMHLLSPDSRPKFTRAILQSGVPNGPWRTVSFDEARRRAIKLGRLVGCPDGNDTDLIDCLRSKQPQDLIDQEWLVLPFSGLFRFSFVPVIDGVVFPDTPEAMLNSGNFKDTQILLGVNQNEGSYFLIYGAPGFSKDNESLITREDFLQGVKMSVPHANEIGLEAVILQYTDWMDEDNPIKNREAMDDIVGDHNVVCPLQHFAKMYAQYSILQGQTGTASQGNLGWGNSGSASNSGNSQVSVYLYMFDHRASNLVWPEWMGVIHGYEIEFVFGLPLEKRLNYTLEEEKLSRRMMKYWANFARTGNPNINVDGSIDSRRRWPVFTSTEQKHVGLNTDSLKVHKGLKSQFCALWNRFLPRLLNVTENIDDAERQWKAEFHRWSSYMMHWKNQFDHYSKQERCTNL
Kindly apply the following: Yes if IC50 is less than 10 nM, No in every other case.

>  <molecule>
CC1=CC2Cc3nc4cc(Cl)ccc4c(NCCCCCCCN)c3C(C1)C2 (centres unmarked)

>  <assignedLabel>
No

$$$$
>  <molecule>
CC1=CC2Cc3nc4cc(Cl)ccc4c(N)c3C(C1)C2 (centres unmarked) [compound 1, huprine Y, reference compound]

>  <assignedLabel>
Yes

$$$$
>  <molecule>
CC1=CC2Cc3nc4cc(Cl)ccc4c(NCCCCCCCCCNC(=N)N)c3C(C1)C2 (centres unmarked)

>  <assignedLabel>
No

$$$$
>  <molecule>
NCCCCCCCCCNc1c2c(nc3cc(Cl)ccc13)CCCC2 [14e]

>  <assignedLabel>
No

$$$$
>  <molecule>
CC1=CC2Cc3nc4cc(Cl)ccc4c(NCCCN4CCOCC4)c3C(C1)C2 (racemic)

>  <assignedLabel>
No

$$$$
